System: BCL2 G101V
Run description: TR-FRET competitive binding assay, BCL2 G101V
Design: species or system human
Condition description: ratio Ki BCL2 G101V / Ki BCL2 WT
Entry flag: T if TR_FRET EKI G101V/WT selectivty ratio reaches 6; F if it does not.

Entry Cc1c(N(C(=O)c2cc(-c3cc4c(cc3C(=O)N3Cc5ccccc5C[C@H]3CN3CCCCC3)CN(C(=O)Cc3ccc(OCCN(C)CC5COC5)cc3)CC4)n(C)c2C)c2ccc(O)cc2)cc(C#N)n1C : is its TR_FRET EKI G101V/WT selectivty ratio no less than 6?
F

Assess whether reported TR_FRET EKI G101V/WT selectivty ratio for Cc1c(N(C(=O)c2cc(-c3cc4c(cc3C(=O)N3Cc5ccccc5C[C@H]3C)CN(C(=O)Cc3ccc(OCCN5CCOC(C)C5)cc3F)CC4)n(C)c2C)c2ccc(O)cc2)cc(C#N)n1C (single isomer, unassigned) sits at 6 or higher.
F

* * *

TR_FRET EKI BCLxL/WT selectivty ratio listing for selected molecules.
Assay system: BCLXL WT (Homo sapiens (Human))
Sequence (Q07817 other isoform, or with tags, fused parts or gaps): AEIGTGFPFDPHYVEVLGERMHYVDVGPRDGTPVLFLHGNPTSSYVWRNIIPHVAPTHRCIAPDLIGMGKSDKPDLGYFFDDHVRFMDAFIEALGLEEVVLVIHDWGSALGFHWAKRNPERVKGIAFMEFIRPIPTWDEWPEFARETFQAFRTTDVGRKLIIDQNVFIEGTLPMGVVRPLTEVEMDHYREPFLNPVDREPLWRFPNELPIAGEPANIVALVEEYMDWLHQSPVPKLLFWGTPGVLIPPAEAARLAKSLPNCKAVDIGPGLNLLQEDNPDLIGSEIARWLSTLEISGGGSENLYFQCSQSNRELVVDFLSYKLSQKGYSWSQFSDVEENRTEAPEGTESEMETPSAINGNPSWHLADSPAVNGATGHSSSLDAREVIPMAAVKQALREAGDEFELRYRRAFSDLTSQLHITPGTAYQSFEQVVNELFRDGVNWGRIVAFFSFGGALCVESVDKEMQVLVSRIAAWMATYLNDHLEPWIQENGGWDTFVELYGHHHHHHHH
Run description: TR-FRET competitive binding assay, BCLXL WT
Condition description: ratio Ki BCLxL / Ki BCL2 WT

Here are 5 molecules together with their reported answers.
Cc1c(C(=O)N(c2ccccc2)c2cnn(C(F)F)c2)cc(-c2cc3c(cc2C(=O)N2Cc4ccccc4C[C@H]2C)CN(C(=O)Cc2ccc(OCCN4CCOCC4)cc2F)CC3)n1C; 256.9
Cc1c(N(C(=O)c2cc(-c3cc4c(cc3C(=O)N3Cc5ccccc5C[C@H]3CN3CCCCC3)CN(C(=O)Cc3ccc(OCC(C)N5CCOCC5)cc3)CC4)n(C)c2C)c2ccc(O)cc2)cc(C#N)n1C (single isomer, unassigned) [Example 128]; 93.1
Cc1c(N(C(=O)c2cc(-c3cc4c(cc3C(=O)N3Cc5ccccc5C[C@H]3CN3CCCCC3)CN(C(=O)Cc3ccc(OCCN5CCOCC5)cc3F)CC4)n(C)c2C)c2ccc(O)cc2)cc(C#N)n1C; 55.0
Cc1c(N(C(=O)c2cc(-c3cc4c(cc3C(=O)N3Cc5ccccc5C[C@H]3C)CN(C(=O)Cc3ccc(Cl)cc3F)CC4)n(C)c2C)c2ccc(O)cc2)cc(C#N)n1C; 18.5
Cc1c(N(C(=O)c2cc(-c3cc4c(cc3C(=O)N3Cc5ccccc5C[C@H]3CN3CCCCC3)CN(C(=O)Cc3ccc(OCCN5CCN(CC(F)F)CC5)cc3)CC4)n(C)c2C)c2ccc(O)cc2)cc(C#N)n1C; 134.0

Give its TR_FRET EKI BCLxL/WT selectivty ratio value. Item: Cc1c(N(C(=O)c2cc(-c3cc4c(cc3C(=O)N3Cc5ccccc5C[C@H]3C)CN(C(=O)C3Cc5ccccc5O3)CC4)n(C)c2C)c2ccc(O)cc2)cc(C#N)n1C (stereo partly shown)
12.5

Bench note: what TR_FRET EKI BCLxL/WT selectivty ratio did Cc1c(N(C(=O)c2cc(-c3cc4c(cc3C(=O)N3Cc5ccccc5C[C@H]3C)CN(C(=O)Cc3ccc(OCCN5CCN(C6CC6)CC5)cc3)CC4)n(C)c2C)c2ccc(O)cc2)cc(C#N)n1C show?
11.8

# input molecule: COc1ccc(CC(=O)N2CCc3cc(-c4cc(C(=O)N(c5ccc(O)cc5)c5cc(C#N)n(C)c5C)c(C)n4C)c(C(=O)N4Cc5ccccc5C[C@H]4CN4CCCCC4)cc3C2)c(F)c1 ; wanted: its TR_FRET EKI BCLxL/WT selectivty ratio
24.7

Returns the measured TR_FRET EKI BCLxL/WT selectivty ratio for the input molecule. Input: COc1ncc(N(C(=O)c2cc(-c3cc4c(cc3C(=O)N3Cc5ccccc5C[C@H]3C)CN(C(=O)Cc3ccc(OCCN5CCOCC5)cc3F)CC4)n(C)c2C)c2ccccc2)cc1C#N
214.7

Reported TR_FRET EKI BCLxL/WT selectivty ratio for Cc1ccc(N(C(=O)c2cc(-c3cc4c(cc3C(=O)N3Cc5ccccc5C[C@H]3C)CN(C(=O)Cc3ccc(OCCN5CCOCC5)cc3)CC4)n(C)c2C)c2ccccc2)cc1C#N : what is it?
152.4
